protocol_description: Half-life in rat plasma when administered perorally at a dose of 100 mg/kg
Format: ADME, organism-based
Parameters: dose 100 mg/kg, route oral
measurement_conditions: po
measurement_kind: half-life

>>> obs_value("N[C@](CC1c2ccccc2Oc2ccccc21)(C(=O)O)[C@H]1C[C@@H]1C(=O)O")
"1.94 h"

---

protocol_description: in vivo
measurement_conditions: plasma, iv, 10 mg/kg
Description: Plasma concentration after 0.25 hr at a dose of 10 mg/kg when administered intravenously
measurement_kind: concentration at 0.25 h (ng/mL)

>>> obs_value("N[C@](CC1c2ccccc2Oc2ccccc21)(C(=O)O)[C@H]1C[C@@H]1C(=O)O")
12000

---

protocol_description: Plasma concentration after 2 hr at a dose of 10 mg/kg when administered perorally
measurement_conditions: po
measurement_kind: concentration at 2 h (ng/mL)

>>> obs_value("N[C@](CC1c2ccccc2Oc2ccccc21)(C(=O)O)[C@H]1C[C@@H]1C(=O)O")
50
